Target: soluble DRB1*0101 molecules (Homo sapiens, UniProt P01903+P01911, A100R/D57E/F55L/F60I/F76Y/I96L/L162R/M171V/P40L/Q125E/R42F/V115G/Y59C)
Construct: Soluble HLA class I A*0201 and HLA class II DRA1*0101/DRB1*0101/Ii, DRA1*0101/DRB1*0401/Ii and DRA1*0101/DRB1*0404/Ii molecules were expressed in SC-2 cells; made in house; host or cells: SC-2 cells
Assay: Peptide binding assay, SDS-stability assay
Set-up: key: −: no binding/T cell response; +/−: weak binding/T cell response; +: intermediate binding/T cell response; ++: strong binding/T cell response
Settings: soluble DRB1*0101 molecules
quantity.measured: Binding to DRB1*0101

QWKEPDVYYTSAFVFPTKDVALR [Peptide 1501]
++
TRGRLKAESTVAPEE [Peptide 452]
++
YRHTWDRHDEGAAQGDDDVW [Peptide 1503]
−
NLKYQEFFWDANDIY [Peptide 507]
−
DSTPCHRGDNQLQVQ [Peptide 64]
−

Problem: I'd like to know its Binding to DRB1*0101. The sequence in question is LLQRGPQYSEHPTFTSQYRIQG [Peptide 1502]
Solution: −

Problem: Try the sequence EPDVYYTSAFVFPTK [Peptide 177]
Solution: ++

Problem: Try the sequence QGQNLKYQEFFWDANDIYRIF [Peptide 1505]
Solution: −
